Where do these numbers come from? They come from patent US7498353B2.

Tested on: HCV NS5A protein in 9-13 replicon cells
assayInfo: Quantitative Western blot replicon assay (HEPC_REPLICON-ICWESTERN)
Format: cell-based, Hepatitis C virus (HCV)
runConditions: Hepatitis C virus, read-out: HEPC_REPLICON-ICWESTERN Result Value (IC50)
pIC50: −log10 of the molar value.
reportedEndpoint: pIC50

Incoming: Reported pIC50 for CCOP(=O)(CCN(C(=O)C(Cl)Cl)c1cccc(-c2cc(-c3c(Cl)cccc3Cl)no2)c1)OCC [Cpd. No. 1] : what is it?
Outgoing: 4.70 to 6.00

Incoming: How about this molecule: CCOP(=O)(CCC(=O)CCN(C(=O)C(Cl)Cl)c1ccnc(-c2cc(-c3c(Cl)cccc3Cl)no2)c1)OCC [Cpd. No. 11]
Outgoing: > 6.00

###

Tested on: HCV replicon in 5-2 Luc replicon-comprising cells
assayInfo: HCV replicon assay, luciferase readout (HEPC_REPLICON-LUC)
Type: cell-based
runConditions: Hepatitis C virus, read-out: HEPC_REPLICON-LUC Result Value (IC50)
reportedEndpoint: IC50

Incoming: Reported IC50 for CCOP(=O)(CCN(C(=O)C(Cl)Cl)c1cccc(-c2cc(-c3c(Cl)cccc3Cl)no2)c1)OCC [Cpd. No. 1] : what is it?
Outgoing: > 20 µM

###

So I've got a bunch of compounds here, and I need their AUC values.
assayInfo: Pharmacokinetic studies in portal/jugular vein cannulated rats after oral administration
Format: in vivo, male Spraque-Dawley rats
runConditions: male, Sprague-Dawley, rat, portal vein blood, 5 mg/kg oral dose of prodrug
Numbers only; they are read as ng·h/mL.

Incoming: Reported AUC for N[C@H](C(=O)NCCN(C(=O)C(Cl)Cl)c1cccc(-c2cc(-c3c(Cl)cccc3Cl)no2)c1)c1ccccc1 : what is it?
Outgoing: 627

Incoming: How about this compound: COCN(C(=O)C(Cl)Cl)c1cccc(-c2cc(-c3c(Cl)cccc3Cl)no2)c1
Outgoing: 98.3

###

assayInfo: Pharmacokinetic studies in portal/jugular vein cannulated rats after oral administration
Format: in vivo, male Spraque-Dawley rats
runConditions: male, Sprague-Dawley, rat, in vivo, 5 mg/kg oral dose of prodrug
reportedEndpoint: AUC (ng·h/mL)
Numbers only; they are read as ng·h/mL.

Incoming: Reported AUC for CCOP(=O)(CCN(C(=O)C(Cl)Cl)c1cccc(-c2cc(-c3c(Cl)cccc3Cl)no2)c1)OCC [Cpd. No. 1] : what is it?
Outgoing: 176
